- Tested on: LOC_OS06G16330-cb003
- Sequence (as listed by the source): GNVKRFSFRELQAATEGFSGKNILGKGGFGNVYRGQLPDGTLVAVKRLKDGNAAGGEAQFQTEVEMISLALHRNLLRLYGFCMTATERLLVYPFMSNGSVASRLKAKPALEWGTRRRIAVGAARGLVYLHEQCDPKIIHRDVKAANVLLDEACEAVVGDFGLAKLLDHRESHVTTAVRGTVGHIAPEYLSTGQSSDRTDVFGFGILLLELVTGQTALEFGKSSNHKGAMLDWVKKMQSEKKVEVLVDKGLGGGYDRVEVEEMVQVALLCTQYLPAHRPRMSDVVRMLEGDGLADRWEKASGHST
- Experiment Summary: thermal shift delta Tm vs DMSO control; higher = stronger stabilization (binding);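 further: purified Escherichia coli-expressed rice kinase domain construct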
- Details: 12.5 µM; protein concentration 2 µM
Where a name gives a salt, the structure may show the parent alone.
Each entry belongs to exactly one class, chosen by where its thermal shift delta Tm falls: group A (below 0.02 °C), group B (0.02 °C to below 0.9 °C), group C (0.9 °C or more)

Lookup: Category lookup for the compound "CCCCCCCCCCCCc1ccc(S(=O)(=O)Nc2nncs2)cc1"
Found: group B

Lookup: Any idea which band "COc1cc2ncnc(Nc3ccc(Cl)cc3F)c2cc1OC" is in?
Found: group C

Lookup: Input "C[C@@H]1COCCN1c1cc(C2([S@](C)(=N)=O)CC2)nc(-c2cc[nH]c3nccc2-3)n1" ; output its category
Found: group B

Lookup: Form field 'band' for "N#CC[C@H](C1CCCC1)n1cc(-c2ncnc3[nH]ccc23)cn1"
Found: group C

Lookup: Please report the category associated with COc1cc2ncc(-c3ccccc3)nc2cc1OC [Tyrphostin AG 1296] , nothing else.
Found: group C

Lookup: Into which bin does this compound go? "CN1CCN(Cc2ccc(-c3cnc4[nH]cc(-c5ccc6[nH]ccc6c5)c4c3)cc2)CC1"
Found: group C

Lookup: Which bin should I file O=C1c2c(O)cc(O)cc2OC(c2ccc(O)c(O)c2)C1O (centres undefined) [Taxifolin (Dihydroquercetin)] under?
Found: group A

Lookup: Assign a bin to Nc1ncccc1-c1nc2ccc(-c3ccccc3)nc2n1-c1ccc(C2(N)CCC2)cc1 [Miransertib (ARQ 092) HCl]
Found: group A

Lookup: Kindly state the category for this compound: "CC(C)(C)NC(=O)c1cncn1C1CCN(c2ccc(-c3nnc(C(F)(F)F)o3)cn2)CC1"
Found: group A

Lookup: Quick check: band for "O=C(Cc1ccc(-c2ccc(OCCN3CCOCC3)cc2)cn1)NCc1ccccc1"
Found: group A

Lookup: Which class does "COc1cc(C(=O)N2CCC(N3CCN(C)CC3)CC2)ccc1Nc1ncc2c(n1)N(C)c1ccccc1C(=O)N2C" fall in?
Found: group C

Lookup: Please classify: CN1CC(O)C2=C/C(=N/NC(N)=O)C(=O)C=C21 (centres undefined) [Carbazochrome]
Found: group B

----------
- System: LOC_OS01G21960-cb002
- Experiment Summary: thermal shift delta Tm vs DMSO control; higher = stronger stabilization (binding)
- Details: 12.5 µM; protein concentration 2 µM
Please enter y where thermal shift delta Tm is greater than or equal to 1 °C, and n where it is lower.

Lookup: Decide: is the reported value of thermal shift delta Tm for O=C1NC(=O)[C@@H](c2cn3c4c(cccc24)CCC3)[C@@H]1c1c[nH]c2ccccc12 [Tivantinib (ARQ 197)] equal to or greater than 1 °C?
Found: n

Lookup: Would you say "CCOc1cc(C(=O)N2CCC(N3CCN(C)CC3)CC2)ccc1Nc1ncc2c(n1)N(C1CCCC1)c1ccccc1C(=O)N2C" shows thermal shift delta Tm at minimum 1 °C?
Found: n

Lookup: Decide: thermal shift delta Tm of "Oc1c2ccccc2c2c3c(cccc13)N=N2" >= 1 °C?
Found: y

Lookup: Determine whether measured thermal shift delta Tm meets or exceeds 1 °C for "CCOc1ccn(-c2ccc(F)cc2)c(=O)c1C(=O)Nc1ccc(Oc2ccnc(N)c2Cl)c(F)c1"
Found: n

Lookup: Item "Cc1c(C(=O)N2CCOc3ccc(-c4ccc(N)nc4)cc3C2)ccc(S(C)(=O)=O)c1F" with thermal shift delta Tm of 1 °C or above?
Found: n

Lookup: API: above_or_equal(metric=thermal shift delta Tm, cutoff=1 °C) for item "COc1ccc2[nH]cc(/C=C3\C(=O)Nc4ccc(NC(=O)CCN5CCCCC5)cc43)c2c1"
Found: y

Lookup: Please indicate if the recorded thermal shift delta Tm for "COc1ccc(Cl)c(Nc2nc3ccccc3nc2NS(=O)(=O)c2cccc(NC(=O)C(C)(C)N)c2)c1" meets or exceeds 1 °C.
Found: n

Lookup: Assess whether reported thermal shift delta Tm for "O=C1NC(=O)/C(=C/c2ccc3c(c2)OC(F)(F)O3)S1" sits at 1 °C or higher.
Found: y

Lookup: Quick check: does "C=C[C@@](C)(/C=C/c1ccc(O)cc1)CCC=C(C)C" have thermal shift delta Tm greater than or equal to 1 °C?
Found: n

Lookup: Quick check: does "COCCOc1ccc2c(c1)ncn2-c1ccc2cccc(N3CCC(N)CC3)c2n1" have thermal shift delta Tm greater than or equal to 1 °C?
Found: y

Lookup: // inclusive: thermal shift delta Tm at least 1 °C? input: "CNC(=O)c1cc(Oc2ccc3nc(N[C@@H]4CCCC[C@H]4O)sc3c2)ccn1"
Found: n

Lookup: Given the entry "N#CCNC(=O)c1ccc(-c2ccnc(Nc3ccc(N4CCOCC4)cc3)n2)cc1" , answer whether its thermal shift delta Tm meets or surpasses 1 °C.
Found: y

Lookup: Say whether Cc1cc(C(C)Nc2ccccc2)c2nc(N3CCOCC3)cc(=O)n2c1 (centres undefined) shows thermal shift delta Tm of 1 °C or more.
Found: n

Lookup: Assess whether reported thermal shift delta Tm for "Cn1ncc(Cl)c1-c1cc(C(=O)N[C@H](CN)Cc2cccc(F)c2)sc1Cl" sits at 1 °C or higher.
Found: n

Lookup: # check: thermal shift delta Tm of "O=C(/C=C/c1ccc2ccccc2n1)c1ccncc1" is greater than or equal to 1 °C
Found: y

Lookup: Could you please find out whether "Cn1c(=O)c(F)c(Nc2ccc(I)cc2F)c2c(=O)n(C[C@@H](O)CO)cnc21" has thermal shift delta Tm that meets 1 °C or exceeds it?
Found: n

Lookup: Dear colleague, could you confirm whether "CNC(=O)c1ccccc1Nc1nc(Nc2ccc(N3CCOCC3)cc2OC)ncc1Cl" has thermal shift delta Tm at or above 1 °C?
Found: n

Lookup: Form field: thermal shift delta Tm at least 1 °C? Entry: "CC(C)c1ccc2oc3nc(N)c(C(=O)O)cc3c(=O)c2c1"
Found: n
